Catalogue of solubility values
- assay-explanation: Aqueous solubility of compound
- Assay type: physicochemical
A number alone suffices; assume µM.

Example entries begin here.
> print(dat)
                                   molecule  recorded.value
1  CCNC(=O)Nc1cc(N2CCC(N)C2)c(C(=O)Nc2cccnc2)cn1 (centres undefined)            88.5
2  CCNC(=O)Nc1cc(Nc2cccc(C)c2)c(C(=O)Nc2cccc(C)c2)cn1            4.26
3  CCNC(=O)Nc1cc(Nc2ccc(OC)cc2)c(C(=O)Nc2cccnc2)cn1             2.4

Here's the next entry for you.
[in] Check the records and state solubility for CCNC(=O)Nc1cc(-n2cccn2)c(C(=O)Nc2cccnc2)cn1
[out] 32.6

---

- Tested on: Staphylococcus aureus
- assay-explanation: Antibacterial activity against Staphylococcus aureus ATCC 29213 assessed as reduction in microbial growth by CLSI based broth microdilution method
- Assay type: functional
Entries and their MIC values follow.
I only need the number, in µg/mL, no unit after it.

> print(dat)
                        structure.as.smiles          tested.system  unit.symbol  recorded.value
1  CCNC(=O)Nc1cc(-n2cc(Br)cn2)c(C(=O)Nc2cccnc2)cn1  Staphylococcus aureus        µg/mL              16
2  CCNC(=O)Nc1cc(Nc2ccc(OC)cc2)c(C(=O)Nc2cccnc2)cn1  Staphylococcus aureus        µg/mL               4
3  CCNC(=O)Nc1cc(N2CCCC2)c(C(=O)Nc2cccnc2)cn1  Staphylococcus aureus        µg/mL              64
4  CCNC(=O)Nc1cc(-n2cccn2)c(C(=O)Nc2cccnc2)cn1  Staphylococcus aureus        µg/mL              64

# evaluate next
[in] Specify MIC for CCNC(=O)Nc1cc(-n2nccn2)c(C(=O)Nc2cccnc2)cn1 and stop.
[out] 64

---

- tested-system: DNA gyrase (Escherichia coli, UniProt P0AES4+P0AES6)
- assay-explanation: Inhibition of Escherichia coli DNA gyrase(A2B2 tetramer) preincubated for 5 mins followed by ATP addition and measured once per minute for 20 to 30 minutes by ATPase assay
IC50 listing for selected compounds.
Express the result in nM but write the number alone.

> print(dat)
                        structure.as.smiles  recorded.value
1  CCNC(=O)Nc1cc(-n2ccnn2)c(C(=O)Nc2cccnc2)cn1             200
2  CCNC(=O)Nc1cc(-n2cccn2)c(C(=O)Nc2cccnc2)cn1              86
3  CCNC(=O)Nc1cc(Nc2ccc(OC)cc2)c(C(=O)Nc2cccnc2)cn1              19
4  CCNC(=O)Nc1cc(-n2cncn2)c(C(=O)Nc2cccnc2)cn1              82

[in] Please indicate recorded IC50 of CCNC(=O)Nc1cc(N2CCCC2)c(C(=O)Nc2cccnc2)cn1 measured with DNA gyrase (Escherichia coli, UniProt P0AES4+P0AES6).
[out] 120

[in] Determine reported IC50 for CCNC(=O)Nc1cc(Nc2ccccc2O)c(C(=O)Nc2cccnc2)cn1 ; test system: DNA gyrase (Escherichia coli, UniProt P0AES4+P0AES6).
[out] 410

---

Items are presented alongside their recorded half-life.
- assay-explanation: Half life in human liver microsomes
- Assay type: ADME, Microsome
Output should be the measured figure followed by the unit it is expressed in.

[in] Name the recorded half-life of the item CCNC(=O)Nc1cc(Nc2ccc(OC)cc2)c(C(=O)Nc2cccnc2)cn1 in your answer.
[out] 0.333 h

[in] For CCNC(=O)Nc1cc(N2CCC(N)C2)c(C(=O)Nc2cccnc2)cn1 (centres undefined) , write its half-life.
[out] 4.83 h

[in] Fill in half-life for record CCNC(=O)Nc1cc(Nc2cccc(C)c2)c(C(=O)Nc2cccc(C)c2)cn1
[out] 0.767 h

[in] Write down half-life measured for item CCNC(=O)Nc1cc(-n2cccn2)c(C(=O)Nc2cccnc2)cn1
[out] 2.13 h

---

- assay-explanation: Apparent permeability across apical to basolateral side in human Caco2 cells
- Format: ADME, cell-based
- condition-label: Caco-2
The entries below come with measured Papp A→B values attached.
Just the number in ×10⁻⁶ cm/s, nothing appended.

[in] Please report the measured Papp A→B for CCNC(=O)Nc1cc(N2CCC(N)C2)c(C(=O)Nc2cccnc2)cn1 (centres undefined)
[out] 4.02

[in] Look up and state reported Papp A→B for CCNC(=O)Nc1cc(-n2cccn2)c(C(=O)Nc2cccnc2)cn1
[out] 1.23

[in] Supply recorded Papp A→B for CCNC(=O)Nc1cc(Nc2ccc(OC)cc2)c(C(=O)Nc2cccnc2)cn1 here.
[out] 11.8

---

- assay-explanation: Half life in mouse liver microsomes
- Assay type: ADME, Microsome
observable: half-life
A complete answer gives the number followed by the unit.

> print(dat)
                        structure.as.smiles  observable  recorded.value
1  CCNC(=O)Nc1cc(Nc2cccc(C)c2)c(C(=O)Nc2cccc(C)c2)cn1   half-life          58 min

Now look at this entry.
[in] Please indicate half-life recorded for CCNC(=O)Nc1cc(-n2cccn2)c(C(=O)Nc2cccnc2)cn1
[out] 24 min

---

- Test system: Staphylococcus aureus
- assay-explanation: Antibacterial activity against Staphylococcus aureus ATCC 29213 assessed as reduction in microbial growth by CLSI based broth microdilution method
- Type: functional
Recorded measurements of MIC, one per entry

> print(dat)
                                   compound  recorded.value
1  CCNC(=O)Nc1cc(N2CCC(N)C2)c(C(=O)Nc2cccnc2)cn1 (stereo not drawn)      > 64 µg/mL

[in] Kindly indicate its recorded MIC. Item: CCNC(=O)Nc1cc(-n2cncn2)c(C(=O)Nc2cccnc2)cn1
[out] > 64 µg/mL

[in] Input CCNC(=O)Nc1cc(Nc2ccccc2O)c(C(=O)Nc2cccnc2)cn1 , output reported MIC.
[out] > 64 µg/mL
